tested on: RXRa DBDmut IVT, anti-RXR (DBD mutation: RXRa K156A/R161A, NR concentration 90 nM); test: PBM binding z-score (relative to random genomic background probes); higher = stronger binding; sequences stand for … in GC…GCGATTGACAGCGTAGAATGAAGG
Listing of recorded PBM binding z-score by entry.
Format: numeric value only, no unit, no commentary.

Field: example entries. Status: answers known.
biosequence: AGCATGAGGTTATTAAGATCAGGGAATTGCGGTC
system-tested: RXRa DBDmut IVT, anti-RXR (DBD mutation: RXRa K156A/R161A, NR concentration 90 nM)
PBM binding z-score: 1.99
--
biosequence: CAAACTAGGTCGAGAGGTCAAAGTCCGCTTCCCG
system-tested: RXRa DBDmut IVT, anti-RXR (DBD mutation: RXRa K156A/R161A, NR concentration 90 nM)
PBM binding z-score: 2.17
--
biosequence: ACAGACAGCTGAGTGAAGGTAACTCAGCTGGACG
system-tested: RXRa DBDmut IVT, anti-RXR (DBD mutation: RXRa K156A/R161A, NR concentration 90 nM)
PBM binding z-score: -0.997
--
biosequence: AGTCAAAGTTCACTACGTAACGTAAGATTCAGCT
system-tested: RXRa DBDmut IVT, anti-RXR (DBD mutation: RXRa K156A/R161A, NR concentration 90 nM)
PBM binding z-score: 4
--
biosequence: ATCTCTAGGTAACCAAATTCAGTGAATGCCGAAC
system-tested: RXRa DBDmut IVT, anti-RXR (DBD mutation: RXRa K156A/R161A, NR concentration 90 nM)
PBM binding z-score: 0.324
--
biosequence: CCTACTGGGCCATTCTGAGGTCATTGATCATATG
system-tested: RXRa DBDmut IVT, anti-RXR (DBD mutation: RXRa K156A/R161A, NR concentration 90 nM)
PBM binding z-score: 1.23

Look up and report measured PBM binding z-score for this entry: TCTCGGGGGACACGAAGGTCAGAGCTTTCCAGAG 1.89

Look up and report measured PBM binding z-score for this entry: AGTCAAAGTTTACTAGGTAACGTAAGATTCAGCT 1.44

Look up and report measured PBM binding z-score for this entry: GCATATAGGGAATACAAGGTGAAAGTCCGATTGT 0.292

Look up and report measured PBM binding z-score for this entry: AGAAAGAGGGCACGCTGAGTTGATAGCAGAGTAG 1.36

---

system: THRa:RXRa (NR concentration 90 nM, RXRa partner concentration 90 nM); assay: PBM binding z-score (relative to random genomic background probes); higher = stronger binding; sequences stand for … in GC…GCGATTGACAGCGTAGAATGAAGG
measure-name: PBM binding z-score
Format: numeric value only, no unit, no commentary.

Look up and report measured PBM binding z-score for this entry: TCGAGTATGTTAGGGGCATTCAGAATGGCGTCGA 0.709

---

tested on: VDR homodimer (NR concentration 270 nM); experiment: PBM binding z-score (relative to random genomic background probes); higher = stronger binding; sequences stand for … in GC…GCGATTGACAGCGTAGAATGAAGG
measure-name: PBM binding z-score
Format: numeric value only, no unit, no commentary.

Field: example entries. Status: answers known.
biosequence: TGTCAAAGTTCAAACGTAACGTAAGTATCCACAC
PBM binding z-score: 4.63
//
biosequence: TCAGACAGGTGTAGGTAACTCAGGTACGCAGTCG
PBM binding z-score: 0.47
//
biosequence: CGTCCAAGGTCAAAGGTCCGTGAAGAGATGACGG
PBM binding z-score: 2.87
//
biosequence: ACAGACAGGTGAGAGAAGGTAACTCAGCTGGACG
PBM binding z-score: -0.636
//
biosequence: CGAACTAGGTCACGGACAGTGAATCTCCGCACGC
PBM binding z-score: 0.814

Provide VDR homodimer (NR concentration 270 nM) PBM binding z-score reading for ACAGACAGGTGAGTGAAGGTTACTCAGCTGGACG . -0.214

Provide VDR homodimer (NR concentration 270 nM) PBM binding z-score reading for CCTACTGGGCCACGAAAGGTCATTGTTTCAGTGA . 2.75

Provide VDR homodimer (NR concentration 270 nM) PBM binding z-score reading for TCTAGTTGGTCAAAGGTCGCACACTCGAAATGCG . 1.26

Provide VDR homodimer (NR concentration 270 nM) PBM binding z-score reading for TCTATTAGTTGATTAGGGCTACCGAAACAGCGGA . 0.356

Provide VDR homodimer (NR concentration 270 nM) PBM binding z-score reading for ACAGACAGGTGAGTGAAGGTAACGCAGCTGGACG . -0.319

Provide VDR homodimer (NR concentration 270 nM) PBM binding z-score reading for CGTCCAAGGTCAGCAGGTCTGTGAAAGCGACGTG . 1.65

Provide VDR homodimer (NR concentration 270 nM) PBM binding z-score reading for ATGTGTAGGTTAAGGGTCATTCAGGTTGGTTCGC . 5.37

Provide VDR homodimer (NR concentration 270 nM) PBM binding z-score reading for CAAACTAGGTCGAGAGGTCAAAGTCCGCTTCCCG . 3.99
